Assay: qHTS of pediatric cancer cell lines to identify multiple opportunities for drug repurposing: Primary screen for NB1643 cells (AID 1347099); note: nearly all actives have a fitted effect of over 50% in size
Conditions: NB1643 neuroblastoma viability, CellTiter-Glo luminescence, 48 h; series mostly up to 46 µM
Inconclusive results are not listed. The source made the active and inactive calls. Calls come from the whole dose curve; as a rule, active = well fitted cell-killing curve with a large enough effect; inconclusive = small, poorly fitted or top-dose-only effect; inactive = no such curve, though single readings can be large or run the other way.
Your response should consist of one outcome taken from active, inactive

Query :: # fetch the recorded call for CSc1ccc(C(=O)c2[nH]c(=O)[nH]c2C)cc1 here
Result :: inactive

Query :: What is the recorded call for this compound in the test? CCCCCN(CCCCC)C(=O)C(CCC(=O)O)NC(=O)c1ccc(Cl)c(Cl)c1 (stereo unspecified)
Result :: inactive

Query :: Recorded test outcome, item CN(C)CCCN1c2ccccc2Sc2ccccc21
Result :: inactive

Query :: For CC(=O)[C@]1(O)Cc2c(O)c3c(c(O)c2[C@@H](O[C@H]2C[C@H](N)[C@H](O)[C@H](C)O2)C1)C(=O)c1ccccc1C3=O , what call appears in the results of this test?
Result :: active

Query :: Any idea what this test logged for CN(C)C(=O)Oc1cccc([N+](C)(C)C)c1 ?
Result :: inactive

Query :: Outcome? CNCCC(Oc1ccccc1OC)c1ccccc1 (stereo unspecified)
Result :: inactive

Query :: Per the assay record, what outcome was assigned to CC(=O)Oc1cc(C(C)C)c(OCCN(C)C)cc1C ?
Result :: inactive

Query :: Recorded call for NS(=O)(=O)c1cc2c(cc1Cl)NC(C1CC3C=CC1C3)NS2(=O)=O (stereo unspecified) ?
Result :: inactive

Query :: What is the recorded call for this compound in the test? COC(=O)[C@H]1[C@H]2C[C@@H]3c4[nH]c5cc(OC)ccc5c4CCN3C[C@H]2C[C@@H](OC(=O)c2cc(OC)c(OC)c(OC)c2)[C@@H]1OC
Result :: inactive

Query :: // param item: Nc1nc(N)c2nc(-c3ccccc3)c(N)nc2n1 ; yields the recorded call
Result :: inactive

Query :: How did this test come out for CN(C)CC[C@@H](c1ccc(Br)cc1)c1ccccn1 ?
Result :: inactive

---

Assay: Nrf2 qHTS screen for inhibitors: Validation (AID 493153);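 note: A549 cells with ARE-driven firefly luciferase reporter reporting Nrf2 activity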
Details: A549 ARE-Fluc reporter, 18-24 h; luciferase luminescence
Records with an inconclusive call do not appear. Activity calls are given as the source filed them. Calls follow the shape of the dose curve; as a rule, active = well fitted inhibition curve with a large enough effect in the main read-out, with a control signal flat (not every such curve was filed as active); inconclusive = small, poorly fitted or top-dose-only effect, or effect the other way, or a change in a side signal; inactive = no such curve, though single readings can be large or run the other way.
measurementType: outcome

Below are worked cases with known answers.
>  <compound>
CC(=O)OC(C)C[N+](C)(C)C (configuration not stated)

>  <measurementType>
outcome

>  <result>
inactive

$$$$
>  <compound>
O=C(O)CN(CCOCCOCCN(CC(=O)O)CC(=O)O)CC(=O)O

>  <measurementType>
outcome

>  <result>
inactive

$$$$
>  <compound>
CN1C(=O)CC[C@H]1c1cccnc1

>  <measurementType>
outcome

>  <result>
inactive

$$$$
>  <compound>
CC(=O)[C@]1(O)Cc2c(O)c3c(c(O)c2[C@@H](O[C@H]2C[C@H](N)[C@H](O)[C@H](C)O2)C1)C(=O)c1ccccc1C3=O

>  <measurementType>
outcome

>  <result>
inactive

$$$$
>  <compound>
CN(C)C(=O)Oc1ccc[n+](C)c1

>  <measurementType>
outcome

>  <result>
inactive

$$$$
>  <compound>
C(=C\c1ccccc1)/CN1CCN(C(c2ccccc2)c2ccccc2)CC1

>  <measurementType>
outcome

>  <result>
inactive

$$$$
>  <compound>
CCc1cccc(N(C)C(N)=Nc2cccc3ccccc23)c1

>  <measurementType>
outcome

>  <result>
inactive

$$$$
>  <compound>
NC(=O)c1cn(Cc2c(F)cccc2F)nn1

>  <measurementType>
outcome

>  <result>
inactive

$$$$
>  <compound>
CC(N=C(NC#N)Nc1ccncc1)C(C)(C)C (configuration not stated)

>  <measurementType>
outcome

>  <result>
inactive

$$$$
>  <compound>
CC(C)(C)NCC(O)c1cc(O)cc(O)c1 (configuration not stated)

>  <measurementType>
outcome

>  <result>
inactive

$$$$

Query :: Consider the compound NCCCNCCSP(=O)(O)O and give its measured outcome.
Result :: inactive

Query :: Endpoint output: outcome of C=CCc1ccccc1OCC(O)CNC(C)C (configuration not stated) . Value?
Result :: inactive

Query :: Fill blank: measured outcome of the compound CC(C)(C)c1ccc(C(=O)CCCN2CCC(OC(c3ccccc3)c3ccccc3)CC2)cc1 is ____.
Result :: inactive

Query :: GET /values?readout=outcome&item= NC(=O)c1ncn([C@@H]2O[C@H](CO)[C@@H](O)[C@H]2O)c1O
Result :: inactive

Query :: Please report the recorded outcome for Cc1scc2c1N(C(=O)CN1CCN(C)CC1)c1ccccc1NC2=O .
Result :: inactive

Query :: Which measured outcome value corresponds to COc1cc2c(cc1OC)-c1cc(=Nc3c(C)cc(C)cc3C)n(C)c(=O)n1CC2 ?
Result :: inactive

Query :: Could you tell me which outcome is on file for CCCN1C[C@H](CSC)C[C@@H]2c3cccc4[nH]cc(c34)C[C@H]21 ?
Result :: inactive

Query :: What measured outcome goes with CCO/C([O-])=N/c1c[n+](N2CCOCC2)no1 ?
Result :: inactive

Query :: Endpoint output: outcome of C[C@@H](O)[C@H]1C(=O)N2C(C(=O)O)=C(SCCN=CN)C[C@H]12 . Value?
Result :: inactive

Query :: Request the reported outcome associated with c1cnc(N2CCN(Cc3ccc4c(c3)OCO4)CC2)nc1
Result :: inactive

Query :: Fill in the blank: the reported outcome of CCCCCCCC/C=C\CCCCCCCC(=O)NCc1ccc(O)c(OC)c1 is ____.
Result :: inactive

Query :: Query: outcome; subject: Fc1ccc(C(c2ccc(F)cc2)N2CCN(C/C=C/c3ccccc3)CC2)cc1
Result :: inactive

Query :: Please look up its outcome: CCOC(=O)c1cnc2c(cnn2CC)c1NN=C(C)C
Result :: inactive

Query :: Value lookup for outcome; key = O=C(CCCN1CCC(O)(c2cccc(C(F)(F)F)c2)CC1)c1ccc(F)cc1
Result :: inactive

Query :: Which value of outcome has been reported for Cc1nc2ccccn2c(=O)c1CCN1CCC(C(=O)c2ccc(F)cc2)CC1 in the records?
Result :: inactive

Query :: What outcome value was documented for this compound, N[C@@H](COP(=O)(O)O)C(=O)O ?
Result :: inactive

Query :: Tell me the measured outcome of CN(C)CCN(Cc1cccs1)c1ccccn1 , please.
Result :: inactive

Query :: Requested field: outcome. Item: CNCCC(Oc1ccccc1OC)c1ccccc1 (configuration not stated)
Result :: inactive

Query :: outcome lookup needed for NC(=O)N1c2ccccc2C=Cc2ccccc21 , thanks.
Result :: inactive

Query :: Quick one: outcome of COCCOC(=O)C1=C(C)NC(C)=C(C(=O)OC(C)C)C1c1cccc([N+](=O)[O-])c1 (configuration not stated) ?
Result :: inactive

Query :: Given CCCC(C(=O)OCCN(CC)CC)(c1ccccc1)c1ccccc1 , state its recorded outcome.
Result :: inactive

Query :: Param item = CCCNC(C)C(=O)Nc1ccccc1C (configuration not stated) ; retrieve measured outcome.
Result :: inactive
